- TARGET ENTITY: T1, Recombinant Human DLL4 (delta-like protein 4) (human, UniProt Q9NR61 27-524)
- T1 construct: also called rHuman DLL4; Delta-like 4
- TEST DETAILS: ELISA, DLL4 coated on plate, Fab at 100 nM
EXPERIMENTAL ENDPOINT: ELISA Signal-blank (100 nM Fab)

* Fab VH5-51_IGHD5-18*01>3_IGHJ4*01 G100K/G104T G24T/S28R/G35V & V3-4_IGLJ1*01 V91L/S96P S52E (Fab, V domains shown, Fab expressed in E. coli; heavy chain vector adds CH1 with His6 and Flag tags, light chain vector adds lambda CL; also called H:KT TRV & L:LP S52E) VH: EVQLVQSGAEVKKPGESLKISCKTSGYRFTSYWIVWVRQMPGKGLEWMGIIYPGDSDTRYSPSFQGQVTISADKSISTAYLQWSSLKASDTAMYYCARRKYSYTYDYFDYWGQGTLVTVSS VL: QTVVTQEPSFSVSPGGTVTLTCGLSSGSVSTSYYPSWYQQTPGQAPRTLIYETNTRSSGVPDRFSGSILGNKAALTITGAQADDESDYYCLLYMGPGISYVFGTGTKVTVL | 0.38
* Fab VH5-51_IGHD5-18*01>3_IGHJ4*01 G100K/G104T G24T/S28R/G35V & V3-4_IGLJ1*01 V91L/S96P (Fab, V domains shown, Fab expressed in E. coli; heavy chain vector adds CH1 with His6 and Flag tags, light chain vector adds lambda CL; Template of the S52, T53 and S57 light chain mutants; also called H:KT TRV & L:LP) VH: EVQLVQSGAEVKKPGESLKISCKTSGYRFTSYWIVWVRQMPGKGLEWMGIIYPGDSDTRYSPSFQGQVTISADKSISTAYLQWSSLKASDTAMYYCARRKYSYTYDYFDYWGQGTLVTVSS VL: QTVVTQEPSFSVSPGGTVTLTCGLSSGSVSTSYYPSWYQQTPGQAPRTLIYSTNTRSSGVPDRFSGSILGNKAALTITGAQADDESDYYCLLYMGPGISYVFGTGTKVTVL | 0.39
* Fab VH5-51_IGHD5-18*01>3_IGHJ4*01 G100K/G104T G24T/S28R/G35V & V3-4_IGLJ1*01 V91L/S96P T53I (Fab, V domains shown, Fab expressed in E. coli; heavy chain vector adds CH1 with His6 and Flag tags, light chain vector adds lambda CL; also called H:KT TRV & L:LP T53I) VH: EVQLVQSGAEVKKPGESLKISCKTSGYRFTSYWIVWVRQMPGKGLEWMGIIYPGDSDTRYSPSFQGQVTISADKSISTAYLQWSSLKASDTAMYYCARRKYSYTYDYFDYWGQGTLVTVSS VL: QTVVTQEPSFSVSPGGTVTLTCGLSSGSVSTSYYPSWYQQTPGQAPRTLIYSINTRSSGVPDRFSGSILGNKAALTITGAQADDESDYYCLLYMGPGISYVFGTGTKVTVL | 0.3
* Fab VH5-51_IGHD5-18*01>3_IGHJ4*01 G100K/G104T G24T/S28R/G35V & V3-4_IGLJ1*01 V91L/S96P T53K (Fab, V domains shown, Fab expressed in E. coli; heavy chain vector adds CH1 with His6 and Flag tags, light chain vector adds lambda CL; also called H:KT TRV & L:LP T53K) VH: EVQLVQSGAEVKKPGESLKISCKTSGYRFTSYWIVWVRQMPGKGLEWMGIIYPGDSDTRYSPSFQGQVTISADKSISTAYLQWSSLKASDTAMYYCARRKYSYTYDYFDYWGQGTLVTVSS VL: QTVVTQEPSFSVSPGGTVTLTCGLSSGSVSTSYYPSWYQQTPGQAPRTLIYSKNTRSSGVPDRFSGSILGNKAALTITGAQADDESDYYCLLYMGPGISYVFGTGTKVTVL | 0.12
* Fab VH5-51_IGHD5-18*01>3_IGHJ4*01 G100K/G104T G24T/S28R/G35V & V3-4_IGLJ1*01 V91L/S96P T53N (Fab, V domains shown, Fab expressed in E. coli; heavy chain vector adds CH1 with His6 and Flag tags, light chain vector adds lambda CL; also called H:KT TRV & L:LP T53N) VH: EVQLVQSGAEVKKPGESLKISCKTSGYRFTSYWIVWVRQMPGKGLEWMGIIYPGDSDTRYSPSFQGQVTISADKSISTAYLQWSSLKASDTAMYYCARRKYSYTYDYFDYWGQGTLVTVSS VL: QTVVTQEPSFSVSPGGTVTLTCGLSSGSVSTSYYPSWYQQTPGQAPRTLIYSNNTRSSGVPDRFSGSILGNKAALTITGAQADDESDYYCLLYMGPGISYVFGTGTKVTVL | 0.15
